This collection of values is drawn from patent US9546153B2.

system: IRAK4 (Homo sapiens (Human), UniProt Q9NWZ3)
Sequence (Q9NWZ3 whole entry, species assumed): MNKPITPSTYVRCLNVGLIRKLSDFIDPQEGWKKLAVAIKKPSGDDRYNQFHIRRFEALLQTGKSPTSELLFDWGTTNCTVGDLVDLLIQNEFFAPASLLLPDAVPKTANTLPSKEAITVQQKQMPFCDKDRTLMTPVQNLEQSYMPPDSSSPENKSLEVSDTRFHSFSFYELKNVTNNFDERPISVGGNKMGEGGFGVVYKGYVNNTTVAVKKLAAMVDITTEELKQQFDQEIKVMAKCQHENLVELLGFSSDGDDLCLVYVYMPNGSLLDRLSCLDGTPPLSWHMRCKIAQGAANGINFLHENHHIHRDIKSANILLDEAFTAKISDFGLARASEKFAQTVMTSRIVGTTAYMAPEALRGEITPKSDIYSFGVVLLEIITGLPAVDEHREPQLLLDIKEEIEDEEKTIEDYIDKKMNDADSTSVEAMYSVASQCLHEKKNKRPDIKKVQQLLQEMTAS
Doc: threshold 3 nM (exclusive). Items with IC50 beneath it return 1; others return -1.

| compound | cat |
| --- | --- |
| CC(C)(O)[C@H](F)CNC(=O)c1cnc(Nc2ccn3nccc3c2)cc1NC1CCCC1(F)F (stereo partly drawn) [Example 297] | -1 |
| CNC(=O)C12CCC(NC(=O)c3cnc(Nc4ccc5ncsc5c4)cc3NC(C)C)(CC1)CC2 [Example 229] | -1 |

Exercise: Say whether its IC50 is strictly beneath 3 nM. Entry: CC(C)(O)[C@H](F)CNC(=O)c1cnc(Nc2ccc3nsnc3c2)cc1N[C@@H](c1ccccc1)[C@H](O)CO [Example 102]
Solution: 1

---

system: UniProt Q9NWZ3
experimental_endpoint: pIC50
Formally, pIC50 is defined as -log10 of the concentration c, with c in mol/L.

| structure_smiles | pIC50 |
| --- | --- |
| CCNc1cc(Nc2cc3scnc3cc2F)ncc1C(=O)NC[C@@H](F)C(C)(C)O | 8.51 |
| CC(C)(O)[C@H](F)CNC(=O)c1cnc(Nc2ccc3ncsc3c2)cc1NC12CCC(NC(=O)c3cccnc3)(CC1)C2 | 8.36 |

Next up:
Exercise: Value lookup for pIC50; key = "CC(C)(O)[C@H](F)CNC(=O)c1cnc(Nc2ncc3ncccc3n2)cc1N[C@H]1CCC[C@@H]1F"
Solution: 8.42

---

The reader will find pIC50 measurements below, all made with IRAK4 (Homo sapiens (Human)).
Please report pIC50 as the negative decimal logarithm of the molar concentration, giving only the number.

| compound | pIC50 |
| --- | --- |
| CC(O)[C@H](F)CNC(=O)c1cnc(Nc2ccc3ncsc3c2)cc1NC1CCCC1 (stereo partly drawn) [Example 28] | 8.11 |
| CCC(C)Nc1cc(Nc2ccc3ncsc3c2)ncc1C(=O)NC[C@@H](F)C(C)(C)O (stereo partly drawn) [Example 138] | 8.72 |
| CC(C)(F)CNc1cc(Nc2ccc3ncsc3n2)ncc1C(=O)NC[C@@H](F)C(C)(C)O | 8.57 |
| CC(C)(C)CNc1cc(Nc2ccc3nccn3n2)ncc1C(=O)NC[C@@H](F)C(C)(C)O | 8.51 |

Exercise: So what does the record say about pIC50 for "CC(C)Nc1cc(Nc2ccc3ncsc3c2)ncc1C(=O)N[C@H]1CC[C@H](N)CC1" ?
Solution: 8.47

Exercise: Now consider CC(C)(O)[C@H](F)CNC(=O)c1cnc(Nc2ccn3nccc3n2)cc1NC1CCC(F)C1 (stereo partly drawn) [Example 247] .
Solution: 8.57

Exercise: Next compound: "CC(C)(C)Nc1cc(Nc2ccc3ncsc3c2)ncc1C(=O)NC[C@@H](F)C(C)(C)O"
Solution: 7.94

Exercise: Subsequent entry: "CC(C)(O)[C@H](F)CNC(=O)c1cnc(Nc2ccc3nccn3n2)cc1NC1CCC1"
Solution: 8.32

Exercise: Repeat with "CC(C)CNc1cc(Nc2ccc3ncsc3c2)ncc1C(=O)NC[C@@H](F)C(C)(C)O"
Solution: 8.44

Exercise: Repeat for the following compound: "CCNc1cc(Nc2ccc3ncc(F)cc3n2)ncc1C(=O)NC[C@@H](F)C(C)(C)O"
Solution: 8.31

Exercise: Same question for "CC(C)(O)[C@H](F)CNC(=O)c1cnc(Nc2ccc3ncsc3c2)cc1Nc1ccc(S(C)(=O)=O)cc1" please.
Solution: 8.20

Exercise: How about "CCNC(=O)c1ccc(Nc2cc(Nc3ccc4ncsc4c3)ncc2C(=O)NC[C@@H](F)C(C)(C)O)cc1" ?
Solution: 8.07

---

IC50 reference
Tested on: TLR2 induced IL-6 in peripheral blood mononuclear cells (PBMCs)
method: PBMC TLR2 Induced IL-6 Assay
Assay type: cell-based, human
settings: Homo sapiens, PBMC, 5 h, human PBMCs, 10 μg/ml lipoteichoic acid for 5 hours, IL-6 by ELISA; value without asterisk; read-out: Cell IC50
API: value field is a number in nM; no unit string.

Guide cases for IC50, answers given:
| compound | system | experimental_endpoint | experimental_value |
| --- | --- | --- | --- |
| CC(C)(O)[C@H](F)CNC(=O)c1cnc(Nc2ccc3ncsc3c2)cc1NC1CC(CO)C1 (stereo partly shown) [Example 69] | TLR2 induced IL-6 in peripheral blood mononuclear cells (PBMCs) | IC50 | 365 |
| CC(C)Nc1cc(Nc2ccc3ncsc3n2)ncc1C(=O)NC[C@@H](F)C(C)(C)O [Example 309] | TLR2 induced IL-6 in peripheral blood mononuclear cells (PBMCs) | IC50 | 61 |
| CC(C)Nc1cc(Nc2cc3ccnn3cc2F)ncc1C(=O)NC[C@@H](F)C(C)(C)O [Example 477] | TLR2 induced IL-6 in peripheral blood mononuclear cells (PBMCs) | IC50 | 717 |
| CC(C)(O)[C@H](F)CNC(=O)c1cnc(Nc2ccc3nonc3c2)cc1NC1CC1 [Example 80] | TLR2 induced IL-6 in peripheral blood mononuclear cells (PBMCs) | IC50 | 271 |
| CC(C)Nc1cc(Nc2ccc3ncsc3c2)ncc1C(=O)N[C@H]1CC[C@H](C(=O)NC2(C#N)CC2)CC1 [Example 213] | TLR2 induced IL-6 in peripheral blood mononuclear cells (PBMCs) | IC50 | 403 |

Exercise: Please report the recorded IC50 for CC(C)(O)[C@H](F)CNC(=O)c1cnc(Nc2ccn3ncc(F)c3n2)cc1NC1CCC1 [Example 252] .
Solution: 173

Exercise: Queued: CCNc1cc(Nc2nc3scnc3cc2F)ncc1C(=O)NC[C@@H](F)C(C)(C)O [Example 468]
Solution: 246

---

Listed next: entries and their corresponding pIC50.
System: TLR2 induced IL-6 in peripheral blood mononuclear cells (PBMCs)
method: PBMC TLR2 Induced IL-6 Assay
Assay type: cell-based, human
settings: Homo sapiens, PBMC, 5 h, human PBMCs, 10 μg/ml lipoteichoic acid for 5 hours, IL-6 by ELISA; value without asterisk; read-out: Cell IC50
Recall that pIC50 is obtained by taking minus log10 of the concentration measured in molar.

Study these solved cases before continuing.
| compound | experimental_endpoint | experimental_value |
| --- | --- | --- |
| CC(C)(O)[C@H](F)CNC(=O)c1cnc(Nc2ccc3ncncc3c2)cc1N[C@@H]1CCC[C@H]1O [Example 330] | pIC50 | 7.12 |
| CC(C)Nc1cc(Nc2ccc3ncsc3c2)ncc1C(=O)N[C@H]1CC[C@H](C(=O)NC23CCC(O)(CC2)C3)CC1 [Example 220] | pIC50 | 6.48 |
| CC(C)Nc1cc(Nc2ccc3ncsc3c2)ncc1C(=O)N[C@H]1CC[C@H](C(=O)NCC(C)(C)O)CC1 [Example 196] | pIC50 | 6.49 |
| CC(C)(O)[C@H](F)CNC(=O)c1cnc(Nc2ccc3ncsc3c2)cc1Nc1ccc(C(=O)NCC(F)(F)F)cc1 [Example 324] | pIC50 | 6.72 |
| Cc1cc(O)ccc1Nc1cc(Nc2ccc3ncsc3c2)ncc1C(=O)NC[C@@H](F)C(C)(C)O [Example 86] | pIC50 | 6.55 |

Exercise: Any idea what its pIC50 is? The compound is CC(C)Nc1cc(Nc2ccc3ncsc3c2)ncc1C(=O)NCC[C@@H](C)NC(=O)[C@@H]1CC[C@@H](F)C1 [Example 187]
Solution: 6.49

Exercise: Further, for CC(=O)NCCCCNC(=O)c1cnc(Nc2ccc3ncsc3c2)cc1NC(C)C [Example 209] ?
Solution: 6.06

Exercise: What do we get for CC(C)(O)[C@H](F)CNC(=O)c1cnc(Nc2nc3scnc3cc2F)cc1NC1CCCOC1 (stereo partly shown) [Example 473] ?
Solution: 6.40

Exercise: Likewise for CC(C)(O)[C@H](F)CNC(=O)c1cnc(Nc2ccc3ncsc3c2)cc1Nc1cccc(CO)c1 [Example 57] ?
Solution: 6.50

Exercise: Next: CC(C)(O)[C@H](F)CNC(=O)c1cnc(Nc2ccc3ncsc3c2)cc1NC1CCCC1 [Example 33]
Solution: 7.19

Exercise: Record: CC(C)Nc1cc(Nc2ccc3ncsc3c2)ncc1C(=O)NCC[C@@H](C)NC(=O)N(C)c1ccccc1 [Example 208]
Solution: 6.19

Exercise: Lookup Cc1cnc2ccc(Nc3cc(NC(C)C)c(C(=O)NC[C@@H](F)C(C)(C)O)cn3)nn12 [Example 277]
Solution: 6.74

Exercise: CC(C)(O)[C@H](F)CNC(=O)c1cnc(Nc2ccc3cnccc3n2)cc1NC1CC1 [Example 79] , same question.
Solution: 7.32

---

System: IRAK4 (Homo sapiens (Human)) | Read-out: IC50
Returns: string containing the number followed by the unit.

These solved cases illustrate the format of a correct answer.
| compound | experimental_value |
| --- | --- |
| CC(C)(O)C(F)(F)CNC(=O)c1cnc(Nc2nc3scnc3cc2F)cc1NC1CC1 [Example 493] | 4.3 nM |
| CC(C)(O)[C@H](F)CNC(=O)c1cnc(Nc2ccc3ncsc3c2)cc1NC1CC1 [Example 42] | 2.7 nM |

Pending compound:
Exercise: # get_value(readout='IC50', item= CC(C)Nc1cc(Nc2ccc3ncsc3c2)ncc1C(=O)NCC[C@@H](C)NC(=O)OC(C)C [Example 183] )
Solution: 3.9 nM
